Provenance of the data: patent US20260085114A1

biological target: human GPRC5D (G protein-coupled receptor class C group 5 member D), on cells (human, UniProt Q9NZD1 1-345); experiment: cell-based or functional assay
Sequence (Q9NZD1 whole entry): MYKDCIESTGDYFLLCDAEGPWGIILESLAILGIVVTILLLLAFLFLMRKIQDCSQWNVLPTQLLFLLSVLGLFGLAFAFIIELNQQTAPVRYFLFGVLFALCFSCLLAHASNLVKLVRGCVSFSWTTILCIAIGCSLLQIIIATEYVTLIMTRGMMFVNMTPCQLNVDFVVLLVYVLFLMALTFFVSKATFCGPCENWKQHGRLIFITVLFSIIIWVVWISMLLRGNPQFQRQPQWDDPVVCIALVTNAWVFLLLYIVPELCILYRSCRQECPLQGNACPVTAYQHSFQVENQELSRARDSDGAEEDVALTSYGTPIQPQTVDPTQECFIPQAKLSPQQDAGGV
quantity-name: ADCC reporter (Jurkat-NFAT-luc-CD16-V158 luciferase), Top

Task item: Fill blank: measured ADCC reporter (Jurkat-NFAT-luc-CD16-V158 luciferase), Top of the binder humanized antibody 26D1 (hz) (antibody, V domains shown) VH: QVQLVQSGAEVKKPGASVKVSCKASGYTFTSYTIQWIKQAPGQGLEWIGYIIPSSGYTNYNQKFKDKATLTADKSSNTAYMELSSLTSEDTAVYYCANNYGNWGFTYWGQGTTVTVSS VL: DIQMTQSPSTLSASVGDRVTITCKASQNVGSAVTWYQQKPGKAPRLLIYSASNRYTGVPDRFSGSGSGTEFTLTISSLQPDDFATYFCQQYSNYPLTFGQGTRLEIKR is ____.
Reply: 18.4
